target: SARS-CoV-2 3CLpro (Severe acute respiratory syndrome coronavirus 2); test: biochemical; format: biochemical; set-up: unit not given here; details: sheet LOPAC_screen_w_protease; LOPAC1280 at 5 µM; replicate 1
Can you tell me Replicate_1 for the items I'm about to list?
One number for each entry.

# example entries with known answers
NC(=O)C1=CN([C@@H]2O[C@H](COP(=O)([O-])OP(=O)([O-])OC[C@H]3O[C@@H](n4cnc5c(N)ncnc54)[C@H](OP(=O)([O-])[O-])[C@@H]3O)[C@@H](O)[C@H]2O)C=CC1.[Na+].[Na+].[Na+].[Na+] [NADPH tetrasodium] ... 1.812
NC(N)=NOCC[C@H](N)C(=O)O.O=S(=O)(O)O [L-Canavanine sulfate] ... 1.623

Field: Replicate_1. Fill in for each record below.
1. Cc1cccc(C(=O)NCN2CCN(c3ccccc3C#N)CC2)c1.O=C(O)/C=C\C(=O)O [PD 168,077 maleate]
2. NCC(CP(=O)(O)O)c1ccc(Cl)cc1 (stereo not shown)
3. NC(=O)c1cnccn1 [Pyrazinecarboxamide]
4. CCCN(CCc1ccccc1)C1CCc2c(O)cccc2C1.Cl (racemic) [(±)-PPHT hydrochloride]
5. CCOC(=O)c1ncn2c1[C@@H]1CCCN1C(=O)c1cc(OC)ccc1-2

1: 0.792; 2: -0.2982; 3: 1.572; 4: 1.344; 5: 1.0635

// data source = paper PMC7587356
